Taken from ChEMBL document CHEMBL1221301.

molecular target: Collagenase 3 (Homo sapiens, UniProt P45452)
The following ranges of IC50 define the classes used here: low-valued: < 8 nM; mid-valued: ≥ 8 nM and < 80 nM; high-valued: ≥ 80 nM

Smiles representation: CNC(=O)[C@H](NC(=O)c1ccc(-c2cccc(CNC(=O)c3ccco3)c2)o1)C1CCCCC1
Measured target: Collagenase 3 (Homo sapiens, UniProt P45452)
Label class: mid-valued
--
Smiles representation: CNC(=O)[C@H](NC(=O)c1ccc(-c2cccc(CNC(=O)c3occc3C)c2)o1)C1CCCCC1
Measured target: Collagenase 3 (Homo sapiens, UniProt P45452)
Label class: high-valued
--
Smiles representation: CNC(=O)[C@H](NC(=O)c1ccc(-c2cccc(CNC(=O)c3cn4ccc(C)cc4n3)c2)o1)C1CCCCC1
Measured target: Collagenase 3 (Homo sapiens, UniProt P45452)
Label class: high-valued
--
Smiles representation: CNC(=O)[C@H](NC(=O)c1ccc(-c2cccc(CNC(=O)c3ccn(C)n3)c2)o1)C1CCCCC1
Measured target: Collagenase 3 (Homo sapiens, UniProt P45452)
Label class: mid-valued
--
Smiles representation: CNC(=O)[C@@H](NC(=O)c1ccc(-c2cccc(CNC(=O)c3ccnc(C(F)(F)F)n3)c2)o1)C1CC1
Measured target: Collagenase 3 (Homo sapiens, UniProt P45452)
Label class: mid-valued
--
Smiles representation: CNC(=O)[C@@H](NC(=O)c1ccc(-c2cccc(CNC(=O)c3cccc(C(F)(F)F)n3)c2)o1)C(C)C
Measured target: Collagenase 3 (Homo sapiens, UniProt P45452)
Label class: low-valued
--
Smiles representation: CNC(=O)[C@H](NC(=O)c1ccc(-c2cccc(CNC(=O)c3ccnc(Cl)n3)c2)o1)C1CCCCC1
Measured target: Collagenase 3 (Homo sapiens, UniProt P45452)
Label class: low-valued
--
Smiles representation: CNC(=O)[C@H](NC(=O)c1ccc(-c2cccc(CNC(=O)c3nccn3C)c2)o1)C1CCCCC1
Measured target: Collagenase 3 (Homo sapiens, UniProt P45452)
Label class: high-valued
--
Smiles representation: CNC(=O)[C@H](NC(=O)c1ccc(-c2cccc(CNC(=O)c3cccc(C(F)(F)F)n3)c2)o1)C1CCCCC1
Measured target: Collagenase 3 (Homo sapiens, UniProt P45452)
Label class: mid-valued
--
Smiles representation: CNC(=O)[C@H](NC(=O)c1ccc(-c2cccc(CNC(=O)c3cccc(C)n3)c2)o1)C1CCCCC1
Measured target: Collagenase 3 (Homo sapiens, UniProt P45452)
Label class: low-valued
--
Smiles representation: CCc1cncc(C(=O)NCc2cccc(-c3ccc(C(=O)N[C@@H](C(=O)NC)C4CCCCC4)o3)c2)c1
Measured target: Collagenase 3 (Homo sapiens, UniProt P45452)
Label class: mid-valued
